system: HEK reporter cell line; assay: cell-viability assay with alamar blue reagent; assay type: cell-based, human; conditions: 0.1 μM inhibitor, 72 hours
property_label: % survival (%)
Expressed in %, but write only the number.

Recorded results for 5 compounds are shown here.
Value of measured % survival for the entry "COc1ccc(CCC(=O)Nc2nc3ccc(Cl)cc3s2)cc1OC" : 100.52

Summary for this compound, "Clc1cc2c(NC3CCCC3)nnc(-c3ccncc3)c2cc1Cl" : % survival is 105.84

Input "CCN(C(=O)CO)[C@H]1CN(/C(=N\C#N)Nc2cccc(OC(F)F)c2)N=C1c1ccc(Cl)c(Cl)c1" . Output % survival: 102.45

Entry "O=c1cc(N2CCOCC2)oc2c1ccc1ccccc12" — recorded % survival = 100.08

For reference, reported % survival for "O=c1cc(N2CCOCC2)oc2c(-c3cccc4c3sc3ccccc34)cccc12" stands at 103.58

Further cases:
Item: "CCCCc1nc2cc(/C=C/C(=O)NO)ccc2n1CCN(CC)CC" | % survival: 80.99

% survival for CN(C)[C@H]1CN(C2CCc3cccc(F)c32)C[C@@H]1c1ccc(N2CCN(S(C)(=O)=O)CC2)cc1 (some centres unmarked) is 100.35

// % survival lookup, compound = Cl.O=C([C@@H](Cc1cccc(C(F)(F)F)c1)NS(=O)(=O)c1cc(F)c2c(c1)CCNC2)N1CCCC1 [(R)-PFI2 hydrochloride] , result: 102.58

----------
test system: HDR in HEK293 reporter cell line (truncated EGFP); test: HDR assay with paired nickases Cas9n D10A RNP and ssOligo donor, EGFP-positive cells by FACS; assay type: cell-based, human; details: three concentrations tested, FIG. 3
concentration with highest HDR efficiency values by entry
Just the number please, in µM, no unit attached.

The observed concentration with highest HDR efficiency for "CCCCc1nc2cc(/C=C/C(=O)NO)ccc2n1CCN(CC)CC" when tested with HDR in HEK293 reporter cell line (truncated EGFP) stands at 0.05

"O=c1cc(N2CCOCC2)oc2c(-c3cccc4c3sc3ccccc34)cccc12" on HDR in HEK293 reporter cell line (truncated EGFP) gives concentration with highest HDR efficiency = 2

Let me check: "Clc1cc2c(NC3CCCC3)nnc(-c3ccncc3)c2cc1Cl" , system HDR in HEK293 reporter cell line (truncated EGFP), measured concentration with highest HDR efficiency is 20

HDR in HEK293 reporter cell line (truncated EGFP) assay, compound "CCN(C(=O)CO)[C@H]1CN(/C(=N\C#N)Nc2cccc(OC(F)F)c2)N=C1c1ccc(Cl)c(Cl)c1" , recorded concentration with highest HDR efficiency = 20

Further cases:
The value of concentration with highest HDR efficiency recorded for "O=C(Nc1c[nH]nc1-c1nc2cc(CN3CCOCC3)ccc2[nH]1)NC1CC1" when tested on HDR in HEK293 reporter cell line (truncated EGFP) reads 0.05

Measured concentration with highest HDR efficiency (HDR in HEK293 reporter cell line (truncated EGFP)), entry Cl.O=C([C@@H](Cc1cccc(C(F)(F)F)c1)NS(=O)(=O)c1cc(F)c2c(c1)CCNC2)N1CCCC1 [(R)-PFI2 hydrochloride] : 20

----------
test system: HEK reporter cell line; assay: cell-viability assay with alamar blue reagent; type: cell-based, human; conditions: 1 μM inhibitor, 72 hours
property_label: % survival (%)
Supply the numeric figure in %, leaving out any unit text.

Some molecules with known % survival results, for comparison:
Note to self: % survival recorded for "O=c1cc(N2CCOCC2)oc2c(-c3cccc4c3sc3ccccc34)cccc12" was 88.88

% survival measured on CN(C)[C@H]1CN(C2CCc3cccc(F)c32)C[C@@H]1c1ccc(N2CCN(S(C)(=O)=O)CC2)cc1 (some centres unmarked) = 103.27

The measured % survival associated with "Clc1cc2c(NC3CCCC3)nnc(-c3ccncc3)c2cc1Cl" reads 107.75

So for "CCN(C(=O)CO)[C@H]1CN(/C(=N\C#N)Nc2cccc(OC(F)F)c2)N=C1c1ccc(Cl)c(Cl)c1" , the logged % survival turned out to be 102.92

// recorded % survival for "O=c1cc(N2CCOCC2)oc2c1ccc1ccccc12" : 100.14

More entries:
Quick note, % survival for "CCCCc1nc2cc(/C=C/C(=O)NO)ccc2n1CCN(CC)CC" landed at 15.56

Looking up "COc1ccc(CCC(=O)Nc2nc3ccc(Cl)cc3s2)cc1OC" , I see its % survival listed as 100.86

Noted for Cl.O=C([C@@H](Cc1cccc(C(F)(F)F)c1)NS(=O)(=O)c1cc(F)c2c(c1)CCNC2)N1CCCC1 [(R)-PFI2 hydrochloride] : its % survival reads 101.51

----------
system: HEK reporter cell line; test: cell-viability assay with alamar blue reagent; assay type: cell-based, human; conditions: 10 μM inhibitor, 72 hours
property_label: % survival (%)
# number only, unit % dropped from output

Record excerpt, results attached:
Fill in: HEK reporter cell line % survival for CN(C)[C@H]1CN(C2CCc3cccc(F)c32)C[C@@H]1c1ccc(N2CCN(S(C)(=O)=O)CC2)cc1 (stereo partly drawn) [A395] = 87.94

Kindly note: HEK reporter cell line, CCN(C(=O)CO)[C@H]1CN(/C(=N\C#N)Nc2cccc(OC(F)F)c2)N=C1c1ccc(Cl)c(Cl)c1 [BAY598] , % survival value reported: 101.44

Here is another compound to look at.
Kindly note: HEK reporter cell line, O=c1cc(N2CCOCC2)oc2c1ccc1ccccc12 [NU7026] , % survival value reported: 83.17

----------
system: HEK reporter cell line; experiment: cell-viability assay with alamar blue reagent; assay type: cell-based, human; conditions: 10 μM inhibitor, 72 hours
Recorded % survival values for a group of molecules are listed next.
API: value field is a number in %; no unit string.

The reported HEK reporter cell line % survival of O=c1cc(N2CCOCC2)oc2c(-c3cccc4c3sc3ccccc34)cccc12 [NU7441] is 22.95

// molecule Cl.O=C([C@@H](Cc1cccc(C(F)(F)F)c1)NS(=O)(=O)c1cc(F)c2c(c1)CCNC2)N1CCCC1 [(R)-PFI2 hydrochloride] , assay HEK reporter cell line, % survival value: 96.42

# lookup: COc1ccc(CCC(=O)Nc2nc3ccc(Cl)cc3s2)cc1OC [KY02111] on HEK reporter cell line, % survival = 95.18

Field % survival (system: HEK reporter cell line) for entry CCCCc1nc2cc(/C=C/C(=O)NO)ccc2n1CCN(CC)CC [SB939] = 2.25

Next item in the queue.
Clc1cc2c(NC3CCCC3)nnc(-c3ccncc3)c2cc1Cl [A196] tested on HEK reporter cell line gave % survival: 107.43

Where do the numbers come from? From patent US20230183751A1.
